Data provenance is ChEMBL document CHEMBL4038268.

Test: Toxicity in po dosed SCID-Beige mouse administered once daily
Type: organism-based
Conditions: in vivo

{"molecular_string": "Cc1[nH]c(-c2cc(NS(C)(=O)=O)ccc2Oc2ccccc2)c2c1C(=O)CCC2", "MTD": "100 mg/kg/day"}

----------
Overview of reported log10 of CL free across a group of compounds:
System: Liver
Experiment: Unbound intrinsic clearance in mouse liver microsomes
Assay type: ADME, microsome
observable: log10 of CL free (log10 of the value in mL/min/kg)

{"molecular_string": "Cc1[nH]c(-c2cc(S(C)(=O)=O)ccc2Oc2ccc(F)cc2F)c2cn[nH]c(=O)c12", "log10 of CL free": 2.79}
{"molecular_string": "Cc1[nH]c(-c2cc(S(C)(=O)=O)ccc2Oc2ccc(F)cc2F)cc1C(N)=O", "log10 of CL free": 2.00}
{"molecular_string": "CCS(=O)(=O)Nc1ccc(Oc2ccccc2)c(-c2[nH]c(C)c3c(=O)[nH]ncc23)c1", "log10 of CL free": 2.90}
{"molecular_string": "Cn1cc(-c2cc(S(C)(=O)=O)ccc2Oc2ccc(F)cc2F)c2cc[nH]c(=O)c21", "log10 of CL free": 2.30}
{"molecular_string": "Cc1[nH]c(-c2cc(NS(C)(=O)=O)ccc2Oc2ccccc2)c2c1C(=O)CCC2", "log10 of CL free": 2.96}
{"molecular_string": "Cn1cc(-c2cc(CS(C)(=O)=O)ccc2Oc2ccc(F)cc2F)c2cc[nH]c(=O)c21", "log10 of CL free": 2.60}
{"molecular_string": "Cn1cc(-c2ccccc2Oc2ccccc2)c2cc[nH]c(=O)c21", "log10 of CL free": 5.03}
{"molecular_string": "Cc1[nH]c(-c2cc(S(C)(=O)=O)ccc2Oc2ccc(F)cc2F)c2c1C(=O)CCC2", "log10 of CL free": 3.15}
